Values were extracted from ChEMBL document CHEMBL1201862.

Tested on: SK-OV-3
Assay: NCI tumour cell line growth inhibition, 48 h
Active and inactive are the calls of the source. Rule as the data show it: active = GI50 up to about 1.1 µM and inactive = higher.
readout: GI50

{"compound": "O=C(CC1(O)C(=O)Nc2c(Cl)cc(Cl)cc21)c1ccc(Br)cc1 (stereo not drawn)", "measurementTarget": "SK-OV-3", "readout": "GI50", "recordedMeasurement": "27 µM (inactive)"}
{"compound": "COc1ccc(OC2OC(CO)C(O)C(O)C2O)cc1 (stereo not drawn)", "measurementTarget": "SK-OV-3", "readout": "GI50", "recordedMeasurement": "> 100 µM (inactive)"}
{"compound": "CCC(CCCN)Nc1cc(OC)cc2c(C)ccnc12 (stereo not drawn)", "measurementTarget": "SK-OV-3", "readout": "GI50", "recordedMeasurement": "13.6 µM (inactive)"}
{"compound": "CCN(CC)CC[n+]1ccc2c(C)c3[nH]c4ccc(O)cc4c3c(C)c2c1", "measurementTarget": "SK-OV-3", "readout": "GI50", "recordedMeasurement": "10.4 µM (inactive)"}
{"compound": "O=[N+]([O-])c1ccc(NC(=S)Nc2ccccn2)cc1", "measurementTarget": "SK-OV-3", "readout": "GI50", "recordedMeasurement": "47 µM (inactive)"}
{"compound": "O=CC12c3ccccc3C(c3ccccc31)C1C(=O)NC(=O)C12 (stereo not drawn)", "measurementTarget": "SK-OV-3", "readout": "GI50", "recordedMeasurement": "> 100 µM (inactive)"}
{"compound": "Cc1cccc(C)c1NC(=O)/C(=N/NC(N)=S)C(C)C(=O)c1ccc(Cl)cc1 (stereo not drawn)", "measurementTarget": "SK-OV-3", "readout": "GI50", "recordedMeasurement": "> 100 µM (inactive)"}
{"compound": "O=[PH](O)c1cc2c3ccccc3ccc2c2ccccc12", "measurementTarget": "SK-OV-3", "readout": "GI50", "recordedMeasurement": "> 100 µM (inactive)"}
{"compound": "O=C(/C=C/c1ccccc1Cl)c1ccc(Cl)c(Cl)c1", "measurementTarget": "SK-OV-3", "readout": "GI50", "recordedMeasurement": "24.5 µM (inactive)"}
{"compound": "NNC(=S)N/N=C(/C(=O)Nc1ccc(Cl)c(Cl)c1)C(C1OC(=O)c2ccccc21)[N+](=O)[O-] (stereo not drawn)", "measurementTarget": "SK-OV-3", "readout": "GI50", "recordedMeasurement": "> 100 µM (inactive)"}
{"compound": "CS(=O)(=O)N(CC(=O)O)Cc1ccccc1", "measurementTarget": "SK-OV-3", "readout": "GI50", "recordedMeasurement": "> 100 µM (inactive)"}
{"compound": "CCOC(=O)[C@H]1C[C@@H](C(=O)c2ccccc2)N2N=C(c3ccc(Br)cc3)C=C[C@H]12", "measurementTarget": "SK-OV-3", "readout": "GI50", "recordedMeasurement": "> 100 µM (inactive)"}
{"compound": "O=c1cc(/N=N\\c2ccc(Cl)c(Cl)c2)[nH]c(=O)[nH]1", "measurementTarget": "SK-OV-3", "readout": "GI50", "recordedMeasurement": "15.8 µM (inactive)"}
{"compound": "Cc1c2ccncc2c(C)c2c1sc1ccccc12", "measurementTarget": "SK-OV-3", "readout": "GI50", "recordedMeasurement": "13.1 µM (inactive)"}
{"compound": "Cc1ccc(S(=O)(=O)N2C[C@](O)(c3ccccc3)[C@H]2C)cc1", "measurementTarget": "SK-OV-3", "readout": "GI50", "recordedMeasurement": "> 100 µM (inactive)"}
{"compound": "COC(=O)/C=C(/C(=O)OC)c1c(C)c(C)c2c(C)cc(C)cc(C)c1-2", "measurementTarget": "SK-OV-3", "readout": "GI50", "recordedMeasurement": "18.2 µM (inactive)"}
{"compound": "CC[P+]1(c2ccccc2)[C@@H](C)CC[C@@H]1C", "measurementTarget": "SK-OV-3", "readout": "GI50", "recordedMeasurement": "> 100 µM (inactive)"}
{"compound": "CCOC(=O)CC(C)C1(C=O)CCCCC1=O (stereo not drawn)", "measurementTarget": "SK-OV-3", "readout": "GI50", "recordedMeasurement": "> 100 µM (inactive)"}
{"compound": "O=C(/C=C/c1ccc(OCc2ccccc2)cc1)NCc1ccc(C(=O)NCCc2c[nH]c3ccccc23)cc1", "measurementTarget": "SK-OV-3", "readout": "GI50", "recordedMeasurement": "15.7 µM (inactive)"}
{"compound": "C[C@]12CCC(=O)C=C1CC[C@@H]1[C@@H]2C(=O)C[C@@]2(C)[C@H]1CC[C@]2(O)C(=O)CO", "measurementTarget": "SK-OV-3", "readout": "GI50", "recordedMeasurement": "> 100 µM (inactive)"}
{"compound": "CNC(=O)NCCCCC(NC(C)=O)C(=O)NCc1ccccc1 (stereo not drawn)", "measurementTarget": "SK-OV-3", "readout": "GI50", "recordedMeasurement": "> 100 µM (inactive)"}
{"compound": "N#Cc1nc(CCC(c2nc(C#N)c(N)o2)N2C(=O)c3ccccc3C2=O)oc1N (stereo not drawn)", "measurementTarget": "SK-OV-3", "readout": "GI50", "recordedMeasurement": "> 100 µM (inactive)"}
{"compound": "COc1ccc(C(C#N)NC23CC4CC(CC(C4)C2)C3)cc1 (stereo not drawn)", "measurementTarget": "SK-OV-3", "readout": "GI50", "recordedMeasurement": "> 100 µM (inactive)"}
{"compound": "COc1ccc(/C=C2\\CCC(Cc3ccccc3)(CN(C)C)C2=O)cc1 (stereo not drawn)", "measurementTarget": "SK-OV-3", "readout": "GI50", "recordedMeasurement": "> 100 µM (inactive)"}
{"compound": "NS(=O)(=O)c1ccc2c(c1)OCCOCCOCCOCCO2", "measurementTarget": "SK-OV-3", "readout": "GI50", "recordedMeasurement": "> 100 µM (inactive)"}
{"compound": "Fc1cccc(Cl)c1/C=N\\N=C1c2ccccc2-c2ccccc21", "measurementTarget": "SK-OV-3", "readout": "GI50", "recordedMeasurement": "> 100 µM (inactive)"}
{"compound": "COC(=O)C1Cc2c([nH]c3ccccc23)C(C2CCCCC2)N1 (stereo not drawn)", "measurementTarget": "SK-OV-3", "readout": "GI50", "recordedMeasurement": "> 100 µM (inactive)"}
{"compound": "CC(=O)Nc1sc([N+](=O)[O-])cc1S(=O)(=O)c1ccc(Cl)cc1", "measurementTarget": "SK-OV-3", "readout": "GI50", "recordedMeasurement": "2.5 µM (inactive)"}
